# growth inhibition per record follows
assay.remarks: NCI Yeast Anticancer Drug Screen. Data for the sgs1 mgt1 strain (AID 161);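 also: 0% = growth of cultures given vehicle only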
cond: S. cerevisiae sgs1 mgt1 strain, at 50.0 µM, stronger effect = higher value
The panel holds about 79,000 compounds, 15% with a hit somewhere; the sample as a whole holds those more often.

# compound, scale.unit, growth inhibition
measured = [
    ("O=C1C2CCC(C2)C12CC1(c3ccccc3)C(=O)c3ccccc3N1O2 (centres undefined)", "%", -25.1),
    ("CO/N=C1/c2sccc2[C@H](NC(=O)C(Cc2ccccc2)NC(=O)OC(C)(C)C)[C@@H]1O (some centres undefined)", "%", -14),
    ("CCC(=O)NN1C(=O)c2ccccc2C1=O", "%", -23.4),
    ("CCCCCCOC(=O)CCBr", "%", -3.15),
    ("Cc1cc(C)c(C(=O)/C(O)=C/c2ccccc2)c(C)c1", "%", 1.2),
    ("CCOC(=O)C(=CN(C)c1ccc(C)cc1)C(=O)OCC", "%", 8.2),
    ("CC(NC(=O)C(C)(C)C)c1ccc2c(c1)OCCO2 (centres undefined)", "%", 6.6),
    ("CC(/C=C/C=C(\\C)C(=O)O)=C\\C=C\\C=C(C)\\C=C\\C=C(/C)C(=O)O", "%", 3.7),
    ("CN(C)S(=O)(=O)c1cccc2ccccc12", "%", -7.35),
]

###

assay.remarks: NCI Yeast Anticancer Drug Screen. Data for the cln2 rad14 strain (AID 165);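 also: 0% = growth equal to vehicle treated cultures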
cond: S. cerevisiae cln2 rad14 strain, at 50.0 µM, stronger effect = higher value
This is part of a sample that, as a whole, favours compounds with a hit. Of some 79,000 tested, about 15% had one in any assay.

# compound, growth inhibition / %
data = [
    ("CC1(C)CC(C2CC(C)(C)CC(C)(C)[C@H]2O)[C@@H](O)C(C)(C)C1 (some centres not stated)", -13.2),
    ("O/N=C/c1ccc(O)c(O)c1", -0.7),
    ("CCOc1ncnc2ccc(Cl)cc12", -18.1),
    ("COc1ccc2oc(=O)c(-c3csc(-c4ccccc4)n3)cc2c1", 1.25),
    ("O=[N+]([O-])c1ccc(CS(=O)(=O)O)cc1", -15.1),
    ("O=C(COc1ccccc1)Nc1cccc(C(=O)O)c1", 0.9),
    ("COC(=O)C[C@@]1(C(=O)OC)[C@@H](C(=O)OC)C(C(=O)OC)=NN1C", -49),
]

###

assay.remarks: NCI Yeast Anticancer Drug Screen. Data for the mlh1 rad18 strain (AID 175)
cond: S. cerevisiae mlh1 rad18 strain growth inhibition; at 50.0 µM; stronger effect = higher value
This is part of a sample that, as a whole, favours compounds with a hit. Of some 79,000 tested, about 15% had one in any assay. Calls of active or inactive are those of the source. Cut-off read from the data, not from the text of the source: active = growth inhibition above about 70%; inactive = the rest.

# compound, growth inhibition
records = [
    ("C#C/C=C/CC(OC(C)=O)C1C/C=C\\CC(Br)C(CC)O1 (configuration not stated)", "45.3% (inactive)"),
    ("COC(=O)NCCCCl", "3.15% (inactive)"),
    ("O=C(OCCNC(=O)N1CCOCC1)OCCNC(=O)N1CCOCC1", "11.3% (inactive)"),
    ("NNC(=O)C(=O)N/N=C1\\CCCC1C(=O)CCC(=O)Nc1cccc(Cl)c1 (configuration not stated)", "-30.9% (inactive)"),
    ("O=C(Cn1ccnc1[N+](=O)[O-])c1ccc(F)cc1", "13.3% (inactive)"),
    ("CC1=CC(C(O)C(C)C)C(C)(Cc2ccc(C)cn2)NC1c1ccccc1 (configuration not stated)", "0.5% (inactive)"),
    ("O=C(O)/C=C\\C(=O)Nc1ccc(S(=O)(=O)Nc2nccs2)cc1", "-10.1% (inactive)"),
    ("CC(C)CC(NC(=O)c1cc([N+](=O)[O-])cc([N+](=O)[O-])c1)C(=O)O (configuration not stated)", "-5.5% (inactive)"),
    ("O=[N+]([O-])CC1(O)CCCCC1", "0.9% (inactive)"),
    ("[O-][n+]1onc2c1/C(=N/O)CCC2", "11.7% (inactive)"),
    ("Cc1ccn2c(CCc3nnc4cc(C)ccn34)nnc2c1", "12.3% (inactive)"),
    ("COc1ccc(COCC[C@H](C)OC2OC(CO)C(O)C(O)C2O)cc1 (some centres not stated)", "-71% (inactive)"),
]
